test: Growth inhibition of P815 mastocytoma during 24 hours exposure; assay type: cell-based, Mouse; conditions: mouse, p815 cells, 100% growth inhibition; Table 3; read-out: Ratio of minimal concentration causing 100% growth inhibition, P815 line vs C. albicans
// values below are reported selectivity ratio at 24 h

| compound | assay endpoint | observed |
| --- | --- | --- |
| CC#CC1=CC=C(C#CC#CC2CO2)SS1 (stereo not drawn) | selectivity ratio at 24 h | ~500 |
| C=CC#CC#CC1=CC=C(C#CC)SS1 | selectivity ratio at 24 h | ~4 |

Now consider a different compound.
# input Entry CC#CC1=CC=C(C#CC#CC(O)CO)SS1 (stereo not drawn) needs its selectivity ratio at 24 h filled in; supply it.
# output 65

###

experiment: Growth inhibition of P815 mastocytoma during 24 hours exposure; format: cell-based, Mouse; conditions: mouse, p815 cells, 50% growth inhibition; Table 4; read-out: Ratio of concentration needed to inhibit growth in 50%, P815 vs C. albicans
// values below are reported selectivity ratio at 24 h

| compound | observed |
| --- | --- |
| CC#CC1=CC=C(C#CC#CC2CO2)SS1 (centres unmarked) | 200 |

# input Entry CC#CC1=CC=C(C#CC#CC(O)CO)SS1 (centres unmarked) needs its selectivity ratio at 24 h filled in; supply it.
# output 17

###

test: Growth inhibition of 3T3 during 24 hours exposure; assay type: cell-based, Mouse; details: mouse, 3t3 cells; Table 2; read-out: Toxicity Index, LC50 3T3 / LC50 C. albicans
// values below are reported selectivity ratio at 24 h
Simply state the number, no unit and no words.

Completed entries (count: 2):
| compound | assay endpoint | observed |
| --- | --- | --- |
| C=CC#CC#CC1=CC=C(C#CC)SS1 | selectivity ratio at 24 h | 12 |
| CC#CC1=CC=C(C#CC#CC2CO2)SS1 (stereo not drawn) | selectivity ratio at 24 h | 800 |

# input Entry CC#CC1=CC=C(C#CC#CC(O)CO)SS1 (stereo not drawn) needs its selectivity ratio at 24 h filled in; supply it.
# output 86
